Source of measurements: ChEMBL document CHEMBL1134857

- System: Streptococcus pneumoniae
- method description: Minimum inhibitory concentration measured against Streptococcus pneumoniae
- Assay type: functional
# Lookup of reported MIC keyed by entry
assay endpoint: MIC (mg/L)

• CC(=O)NC[C@H]1CN(c2ccc(/C=C(\F)c3cccc(C(C)=O)c3)c(F)c2)C(=O)O1 = 1
• CC(=O)NC[C@H]1CN(c2ccc(/C=C(\F)c3nnn(C)n3)c(F)c2)C(=O)O1 = 2
• CC(=O)NC[C@H]1CN(c2ccc(/C=C(\F)c3nccs3)c(F)c2)C(=O)O1 = 2
• CC(=O)NC[C@H]1CN(c2ccc(/C=C(\F)c3cncnc3)c(F)c2)C(=O)O1 = 1
• CC(=O)NC[C@H]1CN(c2ccc(/C=C(\Br)c3cccc(C(N)=O)c3)c(F)c2)C(=O)O1 = 4
• CC(=O)NC[C@H]1CN(c2ccc(/C=C/c3cncc(C#N)c3)c(F)c2)C(=O)O1 = 16
• CC(=O)NC[C@H]1CN(c2ccc(/C=C(\Br)c3cccc(NC(C)=O)c3)c(F)c2)C(=O)O1 = 2
• COc1ccncc1/C(Br)=C/c1ccc(N2C[C@H](CNC(C)=O)OC2=O)cc1F = 2
• CC(=O)NC[C@H]1CN(c2ccc(/C=C(\Br)c3cccc(C#N)c3)c(F)c2)C(=O)O1 = 0.25
